# test: Components of the Cytosolic LPS Sensing Pathway: Gene Identification via Genome-wide siRNA Screen;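 also: robust z of the log signal after scaling to non-targeting control siRNA wells of the plate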
# measurementParameters: RAW264.7 macrophages, IL-1a HTRF, actives lie on both sides, screened at 100 nM (by protocol), cells primed 5 h with Pam3CSK4 first
# Description: Non-canonical inflammasome activation by cytosolic LPS is a critical component of the host response to Gram-negative bacterial infection, however we lack a comprehensive understanding of the cellular processes that control this pathway. […] Lipofectamine RNAiMAX Transfection Reagent ([…]; Invitrogen) was added in […] serum-free, antibiotic-free media to plate wells using a Thermo Scientific Matrix WellMate and Microplate Stacker. […] The plates were read on an EnVision plate reader (PerkinElmer). […]
About 3,700 (7%) of roughly 53,000 sequences were called active. The full list was thinned out, with actives kept by preference.
// NB: equality with -0.6 counts as condition not met; only z-score strictly below is condition met

Look over these answered cases.
residueSequence	class
GCCUCGAUUCACCAAGUGUTT against Ghr	condition met
GGAUGAAACUAUUCAGCACTT against Chml	condition met

Inquiry: Determine whether this sequence shows z-score lower than -0.6 (ties excluded): GCUAUAGAUUGGCUUUAUGTT against Depdc1a
Reply text: condition not met

Inquiry: Determine whether this sequence shows z-score lower than -0.6 (ties excluded): GGACAUGUGGAAAUGGAUATT against Arhgap4
Reply text: condition not met

Inquiry: Determine whether this sequence shows z-score lower than -0.6 (ties excluded): GGAUGUAAGGCCUUUUUUATT against Esr2
Reply text: condition not met

Inquiry: Determine whether this sequence shows z-score lower than -0.6 (ties excluded): GCAUGGAACAAGGUUGCUCTT against Pa2g4
Reply text: condition not met

---

# test: Components of the Cytosolic LPS Sensing Pathway: Gene Identification via Genome-wide siRNA Screen;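 also: robust z of the log signal after scaling to non-targeting control siRNA wells of the plate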
# measurementParameters: RAW264.7 macrophages, IL-1a HTRF, actives lie on both sides, screened at 100 nM (by protocol), cells primed 5 h with Pam3CSK4 first
In all, about 53,000 sequences went through this assay and about 3,700 (7%) were called active.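 The calls were made as follows: active = gene knockdowns whose robust z-score for IL-1 alpha signal is at least 2 or at most -2, so actives lie on both sides; inactive = the rest.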 This is one part of a sample in which actives are shown more often than they occur.
Give your call using only these classes: label 1 (active), label 0 (inactive)

Look over these answered cases.
residueSequence	class
GGACGUAGCUAUGGAGGAUTT against 1810009A15Rik	label 0
GGGAAUAUUUUCAAGUUGCTT against Tmem14a	label 0
GCAAGACAAGUUCUACGAUTT against Csad	label 0
GGAGAAGCUCAUCUCUCUGTT against Rfx2	label 0
CCUACGUGAUAUCCUUUUATT against Vrk1	label 0
GGAAAAAUGACUGAUCUCUTT against Unc5c	label 0
GACUACAAAGGAGAGCAAATT against Igfbp6	label 1
GGAAUGGGAUAGAUUUGUUTT against Ung	label 1

Inquiry: Dear colleague, could you share the recorded outcome for GGAGGAAUACGUAUACUUCTT against Dipk1c when you have a moment?
Reply text: label 1

Inquiry: Dear colleague, could you share the recorded outcome for GGAUUUUGCUGUUUUGGAATT against Dsc1 when you have a moment?
Reply text: label 0

Inquiry: Dear colleague, could you share the recorded outcome for GCAGCACGAACUGAUGACGTT against Plcd3 when you have a moment?
Reply text: label 1

Inquiry: Dear colleague, could you share the recorded outcome for GGUCAAGAAAUGGGCAAGCTT against Arhgdib when you have a moment?
Reply text: label 0

Inquiry: Dear colleague, could you share the recorded outcome for ACUGUCAUGCACCCUAAAGTT against Olfr132 when you have a moment?
Reply text: label 0

Inquiry: Dear colleague, could you share the recorded outcome for GGUUCUUCGGCUUAUGUUGTT against Rgs7bp when you have a moment?
Reply text: label 0

Inquiry: Dear colleague, could you share the recorded outcome for GGCUAACUUUAGUGAGGUATT against 3110070M22Rik when you have a moment?
Reply text: label 0

Inquiry: Dear colleague, could you share the recorded outcome for GGAAUCCUUUUCUUUCUAATT against Slc13a1 when you have a moment?
Reply text: label 0

Inquiry: Dear colleague, could you share the recorded outcome for GGCCCAGCAAAAAAAGAAGTT against Usp46 when you have a moment?
Reply text: label 0

Inquiry: Dear colleague, could you share the recorded outcome for CCAGUUGACAGGUUUGAUCTT against Habp4 when you have a moment?
Reply text: label 0

Inquiry: Dear colleague, could you share the recorded outcome for CGACUUCGCCUUAUGAGAUTT against Tst when you have a moment?
Reply text: label 0

Inquiry: Dear colleague, could you share the recorded outcome for GCAUCCUGAGCAGUGAUAUTT against Taar7b when you have a moment?
Reply text: label 0

Inquiry: Dear colleague, could you share the recorded outcome for CCCUGUAUAUUGCAUUUCCTT against Pcdhb21 when you have a moment?
Reply text: label 0

Inquiry: Dear colleague, could you share the recorded outcome for ACUGUAUGAAGAGGAAACATT against Krt87 when you have a moment?
Reply text: label 1

Inquiry: Dear colleague, could you share the recorded outcome for GCCAUGCCUUAAUCUUGGUTT against Cd300lf when you have a moment?
Reply text: label 0

Inquiry: Dear colleague, could you share the recorded outcome for GCCACUUCCUGGAUAAGGATT against Ftl2-ps when you have a moment?
Reply text: label 1

Inquiry: Dear colleague, could you share the recorded outcome for GGAAUGGAGUUUGGUUUUGTT against Extl1 when you have a moment?
Reply text: label 1
